Tested on: CN0375-F725-PDC KRAS spheroid viability;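 note: spheroids exposed to agents for 7 days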
Experiment: Anticancer human tumor CN0375-F725-PDC patient-derived colon carcinoma cell line growth inhibition [KRAS2]
Condition notes: second compound 10 µM; first compound 0.1 µM; stronger effect = lower value; spheroids with HUVEC and MSC
From the text: Multicellular complex tumor spheroid response to RAS pathway inhibitors in combination with a targeted agents in patient-derived cell lines with oncogenic KRAS variants from multiple cancer types A high-throughput screen of multi-cell type tumor spheroids was designed to identify active combinations of targeted small molecules and KRAS pathway inhibitors. […] Compounds. […] If the clinical Cmax for an agent had not been determined, the highest concentration tested was 10 microM. […]
Readout name: viability, T/C (%)

# Compound, Experimental result
data = [
    ("CC(=O)OC12COC1CC(O)C1(C)C(=O)C(O)C3=C(C)C(OC(=O)C(O)C(NC(=O)OC(C)(C)C)c4ccccc4)CC(O)(C(OC(=O)c4ccccc4)C21)C3(C)C (centres undefined) + CC1OCC2(CCN(c3cnc(Sc4ccnc(N)c4Cl)c(N)n3)CC2)C1N", 67.2),
    ("CN(C)C/C=C/C(=O)Nc1cc2c(Nc3ccc(F)c(Cl)c3)ncnc2cc1O[C@H]1CCOC1 + C=CC(=O)N1CCN(c2nc(=O)n(-c3c(C)ccnc3C(C)C)c3nc(-c4c(O)cccc4F)c(F)cc23)C(C)C1", 76.7),
    ("CCNC(=O)CC1N=C(c2ccc(Cl)cc2)c2cc(OC)ccc2-n2c(C)nnc21 (centres undefined) + C=CC(=O)N1CCN(c2nc(=O)n(-c3c(C)ccnc3C(C)C)c3nc(-c4c(O)cccc4F)c(F)cc23)C(C)C1", 99),
    ("CC1(C)CCC(CN2CCN(c3ccc(C(=O)NS(=O)(=O)c4ccc(NCC5CCOCC5)c([N+](=O)[O-])c4)c(Oc4cnc5[nH]ccc5c4)c3)CC2)=C(c2ccc(Cl)cc2)C1 + C=CC(=O)N1CCN(c2nc(=O)n(-c3c(C)ccnc3C(C)C)c3nc(-c4c(O)cccc4F)c(F)cc23)C(C)C1", 104),
]

The reported measurements were obtained from PubChem BioAssay AID1963860.
